biological target: Fes (UniProt P07332); assay: phosphorylation enrichment, bacterial display (enrichment ratio); higher = better substrate or ligand; peptides without Tyr show the background;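 further: 11-residue human phosphosite peptides and single-mutation variants displayed on the E. coli surface, counted by deep sequencing, each peptide's frequency after selection divided by its frequency in the unselected input library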;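 further: frequency after pTyr selection over input frequency; kinase dosed for 20-30% of maximal phosphorylation in three min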
Sequence (P07332 whole entry, looked up): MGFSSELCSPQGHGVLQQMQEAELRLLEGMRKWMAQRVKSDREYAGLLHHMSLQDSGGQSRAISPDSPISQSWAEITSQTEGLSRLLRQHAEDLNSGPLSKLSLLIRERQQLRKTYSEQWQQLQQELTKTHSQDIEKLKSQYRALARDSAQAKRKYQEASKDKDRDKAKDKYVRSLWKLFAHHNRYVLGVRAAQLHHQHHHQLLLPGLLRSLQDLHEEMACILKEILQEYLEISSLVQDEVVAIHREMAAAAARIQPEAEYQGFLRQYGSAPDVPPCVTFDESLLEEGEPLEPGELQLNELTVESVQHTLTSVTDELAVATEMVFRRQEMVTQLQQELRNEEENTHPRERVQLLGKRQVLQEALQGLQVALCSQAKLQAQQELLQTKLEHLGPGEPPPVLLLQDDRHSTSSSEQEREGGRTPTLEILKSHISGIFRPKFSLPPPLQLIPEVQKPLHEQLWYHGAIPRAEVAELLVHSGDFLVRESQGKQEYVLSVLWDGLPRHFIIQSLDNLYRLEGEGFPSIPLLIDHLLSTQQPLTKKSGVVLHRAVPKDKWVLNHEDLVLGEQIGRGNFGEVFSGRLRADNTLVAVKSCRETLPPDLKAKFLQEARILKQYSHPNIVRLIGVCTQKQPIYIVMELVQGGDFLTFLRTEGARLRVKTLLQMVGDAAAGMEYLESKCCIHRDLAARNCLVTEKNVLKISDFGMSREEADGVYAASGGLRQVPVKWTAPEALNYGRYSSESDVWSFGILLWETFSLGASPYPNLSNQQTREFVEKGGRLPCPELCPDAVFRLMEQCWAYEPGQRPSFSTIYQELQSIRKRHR
Decision: phosphorylation enrichment >= 1 yields condition met, all other cases yield condition not met.

For orientation, consider the following solved cases.
[
  {
    "Query sequence": "ATPKGYETDAS [OTC_Y223_P225T]",
    "Group label": "condition not met"
  },
  {
    "Query sequence": "PLQKIYNFNVL [SLC4A1_Y553_T552I_YF]",
    "Group label": "condition met"
  },
  {
    "Query sequence": "ATDLAYYLVRK [ASL_Y375]",
    "Group label": "condition met"
  },
  {
    "Query sequence": "PSNTEYPGPHS [TP63_Y171_D170E]",
    "Group label": "condition not met"
  }
]

## Task For this sequence, is measured phosphorylation enrichment 1 or higher? GFQPEYGQPAG [SYP_Y278_D277E_YF]
## Result condition not met

## Task Check the entry PSFSEYASVQV [SIRPA_Y496] : does phosphorylation enrichment equal or exceed 1?
## Result condition not met

## Task Could you tell me if the measured phosphorylation enrichment of QEGPEYWDRET [HLA-A_Y83_Q86R] reaches 1 or more?
## Result condition met
